The reported measurements were obtained from paper PMC4336329.

Target or system: human ether-à-go-go-related gene (hERG) potassium channel (human);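 also: peak tail current of the secondary pulse compared with the same well before compound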
Sequence (Q12809 whole entry, looked up): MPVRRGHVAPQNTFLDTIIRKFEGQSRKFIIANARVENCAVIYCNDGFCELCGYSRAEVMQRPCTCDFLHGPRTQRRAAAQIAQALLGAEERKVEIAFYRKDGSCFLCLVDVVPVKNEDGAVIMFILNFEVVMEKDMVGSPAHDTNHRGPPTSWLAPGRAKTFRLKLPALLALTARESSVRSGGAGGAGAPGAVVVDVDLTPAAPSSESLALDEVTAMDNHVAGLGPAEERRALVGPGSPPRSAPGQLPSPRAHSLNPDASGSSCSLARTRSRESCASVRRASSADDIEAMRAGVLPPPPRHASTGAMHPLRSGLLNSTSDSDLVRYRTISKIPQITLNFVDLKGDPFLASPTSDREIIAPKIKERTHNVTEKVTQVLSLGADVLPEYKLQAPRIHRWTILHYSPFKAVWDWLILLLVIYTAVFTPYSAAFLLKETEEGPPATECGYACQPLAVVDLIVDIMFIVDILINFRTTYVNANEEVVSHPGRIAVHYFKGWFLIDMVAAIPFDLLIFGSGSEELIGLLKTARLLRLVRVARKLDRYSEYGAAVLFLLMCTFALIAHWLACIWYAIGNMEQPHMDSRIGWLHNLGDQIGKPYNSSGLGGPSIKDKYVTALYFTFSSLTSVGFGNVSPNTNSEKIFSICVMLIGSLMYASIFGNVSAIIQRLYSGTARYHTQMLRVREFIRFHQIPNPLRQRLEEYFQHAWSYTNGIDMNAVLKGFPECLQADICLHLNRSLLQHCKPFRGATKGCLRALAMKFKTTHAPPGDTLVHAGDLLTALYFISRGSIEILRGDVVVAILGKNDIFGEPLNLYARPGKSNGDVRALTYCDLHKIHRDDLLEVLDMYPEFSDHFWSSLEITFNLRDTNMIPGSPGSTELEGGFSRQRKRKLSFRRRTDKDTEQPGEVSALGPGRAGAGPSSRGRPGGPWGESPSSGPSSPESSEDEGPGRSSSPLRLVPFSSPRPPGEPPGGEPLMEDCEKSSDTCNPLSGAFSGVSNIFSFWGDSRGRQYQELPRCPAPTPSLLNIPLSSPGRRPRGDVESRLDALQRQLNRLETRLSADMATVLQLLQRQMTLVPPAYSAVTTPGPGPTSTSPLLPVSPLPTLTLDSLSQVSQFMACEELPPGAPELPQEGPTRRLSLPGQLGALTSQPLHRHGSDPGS
Assay summary: primary screen, population patch clamp on CHO cells stably expressing hERG; higher = less effect of the substance
Out of some 310,000 compounds screened, about 14,000 (4.5%) showed an effect of 50% or more. Effects have a minus sign here. Only a selection was taken, and strong results are over-represented in it overall.
Reported hERG current change (%, negative = inhibition) at 10uM values for the following molecules.
Measurement label: hERG current change (%, negative = inhibition) at 10uM (%)

molecule=Cc1cc(N2CCN(C(=O)c3ccco3)CC2)n2nc(C)nc2n1 target_or_system="human ether-à-go-go-related gene (hERG) potassium channel (human)" measured_number=-44
molecule=O=C(NCc1ccncc1)c1ccccc1Nc1ccc(SC(F)F)cc1 target_or_system="human ether-à-go-go-related gene (hERG) potassium channel (human)" measured_number=-63.9
molecule=CC(=O)c1cccc(OCC(=O)N(C)CC(=O)Nc2ccc(F)cc2)c1 target_or_system="human ether-à-go-go-related gene (hERG) potassium channel (human)" measured_number=-8.68
molecule=CN1CCC(N(C)C(=S)Nc2ccc(F)cc2)CC1 target_or_system="human ether-à-go-go-related gene (hERG) potassium channel (human)" measured_number=21.3
molecule=O=C(NCc1ccncc1)c1cccc(S(=O)(=O)Nc2ccc(SC(F)F)cc2)c1 target_or_system="human ether-à-go-go-related gene (hERG) potassium channel (human)" measured_number=-3.21
molecule="CC1CC(C)CN(C(=O)c2ccccc2Nc2ccc(SC(F)F)cc2)C1 (stereo not shown)" target_or_system="human ether-à-go-go-related gene (hERG) potassium channel (human)" measured_number=0.904
molecule=CN1CCC(N(C)C(=O)c2ccccc2Nc2ccc(SC(F)F)cc2)CC1 target_or_system="human ether-à-go-go-related gene (hERG) potassium channel (human)" measured_number=-62.2
molecule=CN1CCC(N(C)C(=S)Nc2ccc(SC(F)F)cc2)CC1 target_or_system="human ether-à-go-go-related gene (hERG) potassium channel (human)" measured_number=-56.6
molecule="CC1CN(C(=S)Nc2ccc(SC(F)F)cc2)CC(C)O1 (stereo not shown)" target_or_system="human ether-à-go-go-related gene (hERG) potassium channel (human)" measured_number=-27.6
molecule=Cc1cc(N2CCN(C(=O)c3ccco3)CC2)n2ncc(-c3ccccc3)c2n1 target_or_system="human ether-à-go-go-related gene (hERG) potassium channel (human)" measured_number=-50.5

====

Target or system: human ether-à-go-go-related gene (hERG) potassium channel (human);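 also: peak tail current of the secondary pulse compared with the same well before compound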
Assay summary: primary screen, population patch clamp on CHO cells stably expressing hERG; higher = less effect of the substance
The whole screen tested about 310,000 compounds, of which about 14,000 (4.5%) showed an effect of 50% or more. Effects have a minus sign here. The sample holds strong results, similar compounds and a random draw of the others, so the mix is not that of the screen.
Reported hERG current change (%, negative = inhibition) at 10uM values for the following compounds.
Measurement label: hERG current change (%, negative = inhibition) at 10uM

compound=O=C(NCCN1CCOCC1)c1ccc2c(c1)N(Cc1ccc(Cl)cc1)CCS2 result=-29.8%
compound="CCC(NC(=S)NCc1ccc(F)cc1)c1ccc(C)cc1 (centres unmarked)" result=13.7%
compound=Cc1ccc(C)c(N(CC(=O)NN=C2CCCCCCC2)S(C)(=O)=O)c1 result=-5.63%
compound=O=S(=O)(N/N=C/c1ccc(F)cc1)c1ccccc1 result=6.88%
compound="COC(=O)c1ccc(N2C(=O)CC(N3CCN(c4ccccc4)CC3)C2=O)cc1 (centres unmarked)" result=11.1%
